Tested on: Vero cells
Recorded Conditions: Vero screen
Where a name gives a salt, the structure may show the parent alone.
Property Label: PrestoBlue relative viability
Numbers only.

Before answering, review these 6 worked examples.
>  <Molecule>
COC(=O)C1=C(C)NC(C)=C(C(=O)OCCN2CCN(C(c3ccccc3)c3ccccc3)CC2)C1c1cccc([N+](=O)[O-])c1 (stereo not shown)

>  <PrestoBlue relative viability>
1.036

$$$$
>  <Molecule>
CN(C)CC/C=C1/c2ccccc2Sc2ccc(Cl)cc21.Cl [Chlorprothixene (hydrochloride)]

>  <PrestoBlue relative viability>
0.8299

$$$$
>  <Molecule>
COC(=O)C1=C(C)NC(C)=C(C(=O)O[C@@H]2CCCN(Cc3ccccc3)C2)[C@@H]1c1cccc([N+](=O)[O-])c1.Cl (racemic) [Benidipine HCl]

>  <PrestoBlue relative viability>
0.8086

$$$$
>  <Molecule>
COc1nc2ccc(Br)cc2cc1[C@@H](c1ccccc1)[C@@](O)(CCN(C)C)c1cccc2ccccc12.O=C(O)/C=C/C(=O)O [Bedaquiline fumarate]

>  <PrestoBlue relative viability>
1.113

$$$$
>  <Molecule>
COC(=O)C1=C(C)NC(C)=C(C(=O)OCCN2CCN(C(c3ccccc3)c3ccccc3)CC2)C1c1cccc([N+](=O)[O-])c1.Cl.Cl (stereo not shown) [Manidipine 2HCl]

>  <PrestoBlue relative viability>
0.813

$$$$
>  <Molecule>
CCCCc1oc2ccccc2c1C(=O)c1cc(I)c(OCCN(CC)CC)c(I)c1 [Amiodarone HCl]

>  <PrestoBlue relative viability>
0.8378

$$$$

QUERY: Look up PrestoBlue relative viability for this molecule: CC(C)n1c(/C=C/C(O)CC(O)CC(=O)O)c(-c2ccc(F)cc2)c2ccccc21 (stereo not shown) [Fluvastatin Sodium]
RESULT: 0.5553

----------
Tested on: recombinant NLuc
Type: biochemical
Recorded Conditions: recombinant NLuc, first read column
I'd be grateful if you could share measured Reads Counts per second (read 1) for these entries.
One number for each entry, in Counts per second.

Before answering, review these 4 worked examples.
>  <Compound>
O=C(/C=C/c1cccc(S(=O)(=O)Nc2ccccc2)c1)NO

>  <Reads Counts per second (read 1) (Counts per second)>
351877

$$$$
>  <Compound>
Oc1c(Cl)cc(Cl)c2cccnc12

>  <Reads Counts per second (read 1) (Counts per second)>
380665

$$$$
>  <Compound>
CN1CCN(CCCN2c3ccccc3Sc3ccc(C(F)(F)F)cc32)CC1.Cl.Cl [Trifluoperazine 2HCl]

>  <Reads Counts per second (read 1) (Counts per second)>
358281

$$$$
>  <Compound>
C[C@H](CCC(=O)O)[C@H]1CC[C@H]2[C@@H]3CC[C@@H]4C[C@H](O)CC[C@]4(C)[C@H]3CC[C@]12C

>  <Reads Counts per second (read 1) (Counts per second)>
350340

$$$$

We now examine a further compound.
QUERY: Look up Reads Counts per second (read 1) for this compound: "N[C@@H](Cc1ccc(O)c(O)c1)C(=O)O"
RESULT: 304150

----------
I'd be grateful if you could share measured PrestoBlue relative viability for these entries.
System: HUH7 cells
Recorded Conditions: HUH7 screen
Counter-ions that a name gives are not always drawn.
Answers are plain numbers.

>  <Molecule>
CC[C@H](C)C(=O)O[C@H]1C[C@@H](C)C=C2C=C[C@H](C)[C@H](CC[C@@H]3C[C@@H](O)CC(=O)O3)[C@H]21

>  <Property Label>
PrestoBlue relative viability

>  <Numeric Value>
1.075

$$$$
>  <Molecule>
Cc1cc(C2CCCCC2)n(O)c(=O)c1.NCCO

>  <Property Label>
PrestoBlue relative viability

>  <Numeric Value>
0.5023

$$$$
>  <Molecule>
CCN(CC)Cc1cc(Nc2ccnc3cc(Cl)ccc23)ccc1O [Amodiaquine, Amodiaquine dihydrochloride dihydrate]

>  <Property Label>
PrestoBlue relative viability

>  <Numeric Value>
0.7783

$$$$

Could I get PrestoBlue relative viability for every one of these entries?
1. Cl.Cl.Fc1ccc(C(c2ccc(F)cc2)N2CCN(C/C=C/c3ccccc3)CC2)cc1 [Flunarizine 2HCl]
2. COC(=O)C1=C(C)NC(C)=C(C(=O)O[C@@H]2CCCN(Cc3ccccc3)C2)[C@@H]1c1cccc([N+](=O)[O-])c1.Cl (racemic) [Benidipine HCl]

RESULT:
1. 0.9689
2. 0.6609

Could I get PrestoBlue relative viability for every one of these entries?
1. COc1nc2ccc(Br)cc2cc1[C@@H](c1ccccc1)[C@@](O)(CCN(C)C)c1cccc2ccccc12.O=C(O)/C=C/C(=O)O [Bedaquiline fumarate]
2. Cl.Cl.Cl.O[C@@H](COc1cccc2ncccc12)CN1CCN([C@@H]2c3ccccc3[C@@H]3[C@H](c4ccccc42)C3(F)F)CC1 [LY335979 (Zosuquidar 3HCL), Zosuquidar 3HCL]
3. COC(=O)C1=C(C)NC(C)=C(C(=O)OCCN2CCN(C(c3ccccc3)c3ccccc3)CC2)C1c1cccc([N+](=O)[O-])c1 (stereo not shown)
4. Cc1ccc(NC(=O)c2ccc(CN3CCN(C)CC3)cc2)cc1Nc1nc(-c2cccnc2)cs1
5. COC(=O)C1=C(C)NC(C)=C(C(=O)OC(C)C)C1c1cccc2nonc12 (stereo not shown)
6. O=C1C(O)=C([C@H]2CC[C@H](c3ccc(Cl)cc3)CC2)C(=O)c2ccccc21
7. COC(=O)C[C@](O)(CCCC(C)(C)O)C(=O)O[C@@H]1C(OC)=C[C@]23CCCN2CCc2cc4c(cc2[C@H]13)OCO4
8. COC(=O)C1=C(C)NC(C)=C(C(=O)OCCN2CCN(C(c3ccccc3)c3ccccc3)CC2)C1c1cccc([N+](=O)[O-])c1.Cl.Cl (stereo not shown) [Manidipine 2HCl]

RESULT:
1: 0.5224; 2: 0.6203; 3: 0.5396; 4: 0.7156; 5: 0.6762; 6: 1.15; 7: 0.6794; 8: 0.5726

----------
Test system: HUH7 cells
Recorded Conditions: HUH7 screen
Counter-ions that a name gives are not always drawn.
I'd be grateful if you could share measured PrestoBlue relative viability for these entries.
One number for each entry.

Before answering, review these 5 worked examples.
>  <Compound>
COc1cccc2c1C(=O)c1c(O)c3c(c(O)c1C2=O)C[C@@](O)(C(C)=O)C[C@@H]3O[C@H]1C[C@H](N)[C@H](O)[C@H](C)O1 [Daunorubicin HCl]

>  <Property Label>
PrestoBlue relative viability

>  <Numeric Value>
0.5186

$$$$
>  <Compound>
Cc1[nH]c2ccccc2c1CCNCc1ccc(/C=C/C(=O)NO)cc1

>  <Property Label>
PrestoBlue relative viability

>  <Numeric Value>
0.753

$$$$
>  <Compound>
CCOC(=O)C1=C(C)NC(C)=C(C(=O)OCC)C1c1ccccc1/C=C/C(=O)OC(C)(C)C

>  <Property Label>
PrestoBlue relative viability

>  <Numeric Value>
0.9247

$$$$
>  <Compound>
COc1cc2nccc(Oc3ccc(NC(=O)C4(C(=O)Nc5ccc(F)cc5)CC4)cc3)c2cc1OC [Cabozantinib malate (XL184), Cabozantinib malate]

>  <Property Label>
PrestoBlue relative viability

>  <Numeric Value>
0.8011

$$$$
>  <Compound>
CCOC(=O)C1=C(C)NC(C)=C(C(=O)OC)C1c1cccc([N+](=O)[O-])c1 (centres unmarked)

>  <Property Label>
PrestoBlue relative viability

>  <Numeric Value>
0.6545

$$$$

Could I get PrestoBlue relative viability for every one of these entries?
1. O=C(c1ccc(OCCN2CCCCC2)cc1)c1c(-c2ccc(O)cc2)sc2cc(O)ccc12 [Raloxifene HCl]
2. CCc1cnn2c(NCc3ccc[n+]([O-])c3)cc(N3CCCC[C@H]3CCO)nc12 [Dinaciclib (SCH727965), Dinaciclib]
3. O=C1CCc2ccc(OCCCCN3CCN(c4cccc(Cl)c4Cl)CC3)cc2N1

RESULT:
[0.5413, 0.5934, 0.7416]

----------
I'd be grateful if you could share measured PrestoBlue relative viability for these entries.
System: Vero cells
Recorded Conditions: Vero cells, 10 μM; 1 = DMSO-treated infected cells
Counter-ions that a name gives are not always drawn. *1 amine or outer side, *2 acyl side, *3 side chain or, on linkers, in order; H or OH if unused. Where a SMILES comes first, the peptide text is derived from it. Bridges are numbered along the chain shown (N, C = ends). [ ]: non-standard residue; d: D form. The star is where a group is joined. pTerphenylCO(4''-OnC5H11) = CCCCCOc1ccc(-c2ccc(-c3ccc(C(=O)*)cc3)cc2)cc1; Orn(4R-OH,5R-OH) = O=C([C@H](C[C@@H](O)[C@@H](O)N[*:3])N[*:1])[*:2]; hTyr(3S-OH,4S-OH) = N[C@H](C(=O)O)[C@H](O)[C@@H](O)c1ccc(O)cc1; Pro(3S-OH,4S-Me) = C[C@H]1CN[C@H](C(=O)O)[C@H]1O; Hyp = O=C(O)[C@@H]1C[C@@H](O)CN1
One number for each entry.

Before answering, review these 9 worked examples.
>  <Compound>
CCCCc1oc2ccccc2c1C(=O)c1cc(I)c(OCCN(CC)CC)c(I)c1 [Amiodarone HCl]

>  <Property Label>
PrestoBlue relative viability

>  <Numeric Value>
0.8378

$$$$
>  <Compound>
COc1ccc(-n2nc(C(N)=O)c3c2C(=O)N(c2ccc(N4CCCCC4=O)cc2)CC3)cc1 [Apixaban]

>  <Property Label>
PrestoBlue relative viability

>  <Numeric Value>
2.564

$$$$
>  <Compound>
COC(=O)C[C@](O)(CCCC(C)(C)O)C(=O)O[C@@H]1C(OC)=C[C@]23CCCN2CCc2cc4c(cc2[C@H]13)OCO4 [Homoharringtonine]

>  <Property Label>
PrestoBlue relative viability

>  <Numeric Value>
0.5068

$$$$
>  <Compound>
O=C1C(O)=C([C@H]2CC[C@H](c3ccc(Cl)cc3)CC2)C(=O)c2ccccc21 [Atovaquone]

>  <Property Label>
PrestoBlue relative viability

>  <Numeric Value>
1.55

$$$$
>  <Compound>
COc1cc2c(Oc3ccc4[nH]c(C)cc4c3F)ncnc2cc1OCCCN1CCCC1 [Cediranib (AZD217), Cediranib]

>  <Property Label>
PrestoBlue relative viability

>  <Numeric Value>
0.559

$$$$
>  <Compound>
Clc1ccccc1C(c1ccccc1)(c1ccccc1)n1ccnc1 [Clotrimazole]

>  <Property Label>
PrestoBlue relative viability

>  <Numeric Value>
1.057

$$$$
>  <Compound>
Cc1ccc(Sc2ccccc2N2CCNCC2)c(C)c1 [Vortioxetine]

>  <Property Label>
PrestoBlue relative viability

>  <Numeric Value>
0.6088

$$$$
>  <Compound>
CC[C@H](C)C(=O)O[C@H]1C[C@@H](C)C=C2C=C[C@H](C)[C@H](CC[C@@H]3C[C@@H](O)CC(=O)O3)[C@H]21 [Lovastatin]

>  <Property Label>
PrestoBlue relative viability

>  <Numeric Value>
0.5479

$$$$
>  <Compound>
CCOC(=O)C1=C(C)NC(C)=C(C(=O)OC)C1c1cccc([N+](=O)[O-])c1 (stereo not shown) [Nitrendipine]

>  <Property Label>
PrestoBlue relative viability

>  <Numeric Value>
0.8649

$$$$

We now examine a further compound.
QUERY: Look up PrestoBlue relative viability for this compound: CCCCCOc1ccc(-c2ccc(-c3ccc(C(=O)N[C@H]4C[C@@H](O)[C@@H](O)NC(=O)[C@@H]5[C@@H](O)[C@@H](C)CN5C(=O)[C@H]([C@@H](C)O)NC(=O)[C@H]([C@H](O)[C@@H](O)c5ccc(O)cc5)NC(=O)[C@@H]5C[C@@H](O)CN5C(=O)[C@H]([C@@H](C)O)NC4=O)cc3)cc2)cc1 [Anidulafungin] ({pTerphenylCO(4''-OnC5H11)}-[Orn(4R-OH,5R-OH)]T[Hyp][hTyr(3S-OH,4S-OH)]T[Pro(3S-OH,4S-Me)]; lactam 1-C)
RESULT: 0.5453
